molecular target: hPDE1C (Homo sapiens, UniProt Q14123)
Sequence (Q14123 whole entry): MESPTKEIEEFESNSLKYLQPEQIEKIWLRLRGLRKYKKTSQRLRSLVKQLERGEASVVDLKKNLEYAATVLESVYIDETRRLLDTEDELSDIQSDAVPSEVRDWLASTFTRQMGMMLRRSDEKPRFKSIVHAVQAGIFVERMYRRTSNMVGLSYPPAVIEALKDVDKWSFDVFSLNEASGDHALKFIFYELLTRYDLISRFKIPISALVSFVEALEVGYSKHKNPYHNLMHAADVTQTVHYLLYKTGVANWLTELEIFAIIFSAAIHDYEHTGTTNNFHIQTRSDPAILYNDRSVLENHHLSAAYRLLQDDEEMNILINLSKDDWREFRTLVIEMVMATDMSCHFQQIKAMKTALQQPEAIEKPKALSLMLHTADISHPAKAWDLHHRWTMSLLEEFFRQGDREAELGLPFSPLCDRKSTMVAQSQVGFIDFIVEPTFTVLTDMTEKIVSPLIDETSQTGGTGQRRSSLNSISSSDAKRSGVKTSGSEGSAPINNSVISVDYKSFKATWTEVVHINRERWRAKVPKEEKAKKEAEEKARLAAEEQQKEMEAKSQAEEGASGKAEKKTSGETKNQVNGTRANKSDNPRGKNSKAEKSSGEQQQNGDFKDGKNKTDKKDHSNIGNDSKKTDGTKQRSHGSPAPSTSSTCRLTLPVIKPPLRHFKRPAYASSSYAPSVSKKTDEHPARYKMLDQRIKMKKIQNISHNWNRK
Recorded Endpoint: IC50 (nM)
Quick reminder: number only, in nM, skip the unit.

May I ask what IC50 has been recorded for CN1C(=O)c2c(nn(Cc3ccc(-c4cccc(F)n4)cc3)c2Nc2ccccc2)N2C1=N[C@@H]1CCC[C@@H]12 [Compound 1] ? 0.037
